Would you kindly list ED50 for each of these compounds?
- Tested on: Mus musculus
- Measurement notes: Anticonvulsant activity tested by maximal electroshock test (MES) in mouse after 1 hr of administration
- Assay type: functional
A number alone suffices; assume mg/kg.

Inquiry: // ED50 lookup, key: "Cc1ccccc1-c1nnc(N(N)Cc2ccccc2)s1"
Reply text: 27

Inquiry: // ED50 lookup, key: "CCCCN(N)c1nnc(-c2ccccc2C)s1.Cl"
Reply text: 119

Inquiry: // ED50 lookup, key: "CN(N)c1nnc(-c2ccccc2Sc2ccccc2)s1.Cl"
Reply text: 43

====

Would you kindly list ED50 for each of these compounds?
- Tested on: Mus musculus
- Measurement notes: Anticonvulsant activity tested by maximal electroshock test (MES) in mouse after 1 hr of administration
- Type: functional

Inquiry: // ED50 lookup, key: "CNN(Cc1ccccc1)c1nnc(-c2ccccc2Cl)s1.Cl"
Reply text: > 100 mg/kg

Inquiry: // ED50 lookup, key: "CC(C)NN(C)c1nnc(-c2ccccc2-c2ccccc2)s1.Cl"
Reply text: 55 mg/kg

Inquiry: // ED50 lookup, key: "CCCCCCOc1ccccc1-c1nnc(NNC2CCCC2)s1.Cl"
Reply text: > 100 mg/kg

Inquiry: // ED50 lookup, key: "CCCCCCOc1ccccc1-c1nnc(NNc2ccccc2)s1.Cl"
Reply text: > 100 mg/kg

Inquiry: // ED50 lookup, key: "CCCCCCOc1ccccc1-c1nnc(NN)s1.Cl"
Reply text: 20 mg/kg

Inquiry: // ED50 lookup, key: "Cc1ccccc1-c1nnc(N(C)NC(c2ccccc2)c2ccccc2)s1"
Reply text: > 200 mg/kg
